testDetails: qHTS of pediatric cancer cell lines to identify multiple opportunities for drug repurposing: Confirmatory screen for TC32 cells (AID 1347118);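 further: cells exposed to compound for 48 h before the read; nearly all actives have a fitted effect of over 65% in size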; further: potency means the concentration at half of the fitted maximal effect
experimentalSetup: TC32 Ewing sarcoma cells viability qHTS; series mostly up to 45.9 µM
Records with an inconclusive call do not appear. Activity calls are given as the source filed them. The call rests on the fitted dose curve; in most records, active means well fitted cell-killing curve with a large enough effect; inconclusive means small, poorly fitted or top-dose-only effect; inactive means no such curve, though single readings can be large or run the other way.
endpoint: Potency

Solved cases (6 shown):
compound: COC(=O)Nc1ccc(-c2nc(N3CCOCC3)c3cnn(C4CCN(C(=O)OC)CC4)c3n2)cc1
value: 3.69 µM (active)
--
compound: Cc1ccc(C(=O)N(CCCN)[C@@H](c2nc3cc(Cl)ccc3c(=O)n2Cc2ccccc2)C(C)C)cc1
value: 0.0479 µM (active)
--
compound: Nc1[nH]nc2nnc(-c3c(-c4ccccc4)nn4ccccc34)cc12
value: 16.5 µM (active)
--
compound: CN1N=C(N)c2cn([C@@H]3O[C@H](COP(=O)(O)O)[C@@H](O)[C@@H]3O)c3ncnc1c23
value: 0.737 µM (active)
--
compound: CC1(C)OC2CC3C4CC(F)C5=CC(=O)C=CC5(C)C4C(O)CC3(C)[C@]2(C(=O)CO)O1 (some centres undefined)
value: inactive
--
compound: OCCn1cc(-c2ccc3c(c2)CCC3=NO)c(-c2ccncc2)n1
value: inactive

**Q:** Given the compound `CC(C)n1c(C=C[C@H](O)C[C@H](O)CC(=O)O)c(-c2ccc(F)cc2)c2ccccc21` , what is its reported Potency?
**A:** 16.5 µM (active)

**Q:** Given the compound CC1C(=O)OC2C(O)C34C5CC(C(C)(C)C)C36C(OC(=O)C6O)OC4(C(=O)O5)C12O (centres undefined) , what is its reported Potency?
**A:** inactive

**Q:** Given the compound `CCC(=O)N1CCN(c2ccc(-n3c(=O)ccc4cnc5ccc(-c6cnc7ccccc7c6)cc5c43)cc2C(F)(F)F)CC1` , what is its reported Potency?
**A:** 8.27 µM (active)

Entry source: PubChem BioAssay (NCATS)
